Target: T1, epidermal growth factor receptor (EGFR) (human, UniProt P00533 25-1210)
T1 construct: whole, on cells; Endogenous receptor on human cancer cell lines or xenograft tumour cells; also called ErbB-1; HER1
Experiment: flow cytometry on OE33 cells (carry EGFR and ErbB2), apparent dissociation constant
Ends that are not written are not given here. Cy5.5 = cyanine 5.5 fluorophore
measureName: Kd

Q: Consider the binder QRHKPREGGGSK(Cy5.5)-NH2 (also called QRH*-GGGSK-Cy5.5; EGFR monomer peptide) [QRH*-Cy5.5] and give its recorded Kd.
Ans: 98 nM
